In this section we review reported Log k IAM values for a set of compounds.
experiment: HPLC lipophilicity on IAM (immobilized artificial membrane, phosphatidylcholine) stationary phase; type: physicochemical; conditions: Table S2; ACN 0.15 v/v in mobile phase, pH 7.4
Format: numeric value only, no unit, no commentary.

Substance Smiles | Measured Number
O=C(COc1ccccc1)NNC(=S)Nc1ccc(Br)cc1 | 1.141
O=C(COc1ccccc1)NNC(=S)Nc1cccc(F)c1 | 0.565
O=C(COc1ccccc1)NNC(=S)Nc1ccc(Cl)c(Cl)c1 | 1.542

Entry O=C(COc1ccccc1)NNC(=S)Nc1ccc(F)cc1 has what Log k IAM?
0.336

Entry O=C(COc1ccccc1)NNC(=S)Nc1cccc(Br)c1 has what Log k IAM?
1.120
